# System: M14 melanoma
# Assay Notes: NCI-60 one-dose screen, 48 h (100 = growth as untreated, 0 = no growth, -100 = all killed)
# Assay Conditions: 10 µM unless noted
Compounds without any hit were thinned out: in the full panel of roughly 83,000, 20% have a hit.
Experimental Endpoint: growth (%)

1. Cc1cc(C)cc(Nc2nc3c(s2)CC[C@@]2(C)C3=CC[C@@H]3[C@@H]2CC[C@]2(C)C(=O)CC[C@@H]32)c1
83.4
2. CSc1nc(Cl)cc(N2CC2)n1
114
3. CCC1CN1CCCCN1CC1CC (stereo unspecified)
98
4. CCn1c2ccccc2c2cc(C(=O)c3cccc4c3CCCN4)ccc21
96.9
5. COC(=O)[C@@H](C)C[C@H](Cc1ccccc1)NC(=O)c1nc([C@@H](C[C@H](C(C)C)N(C)C(=O)[C@@H](NC(=O)[C@H]2CC(=O)CCN2C)C(C)C)OC(C)=O)sc1C(C)C
-10.3
6. O=P1(NCCCl)OCCCN1CCCl (stereo unspecified)
106
7. CCN(CC)CCOC(=O)C(OC(C)C)(c1ccccc1)c1ccccc1
110
8. C[C@@]1(CCCCCCCCCc2ccc(O)cc2)C[C@]2(C)OC(=O)C[C@@H]2OO1
99.8
9. Nc1nnnc2nc[nH]c12
-35.4
10. COC(=O)[C@@H](C)C[C@H](Cc1ccccc1)NC(=O)c1csc([C@@H](C[C@H](C(C)C)N(C)C(=O)[C@@H](NC(=O)C23CC(NC(C)=O)(C2)C3)C2CC2)OC(C)=O)n1
41
11. CCN1C(=O)C(=C/C=C/c2ccccc2)C(=O)N(CC)C1=O
82.5

----------
# Tested on: K-562 leukemia
# Assay Notes: NCI-60 one-dose screen, 48 h
# Assay Conditions: 10 µM unless noted
The panel holds about 83,000 compounds, 20% with a hit somewhere; the sample as a whole holds those more often. Active and inactive are the calls of the source. How the source made its calls: active means growth percent below 10; inactive means the rest.
Classes used: true (1) for active, false (0) for inactive

1) OCCNC(Cc1ccccc1)c1ccc2c(c1)OCO2 (configuration not stated)
false (0)
2) COC(=O)[C@@H](C)C[C@H](Cc1ccc(F)cc1)NC(=O)c1csc([C@@H](C[C@H](C(C)C)N(C)C(=O)[C@@H](NC(=O)[C@H]2CCCCN2C)C2CC2)OC(C)=O)n1
true (1)
3) COc1ccc(C(O)(C(=O)O)c2ccc(OC)cc2)cc1
false (0)
4) ClCCN(CCCl)c1ccc(OCc2ccccc2)cc1
false (0)
5) COc1ccc2c(c1)c(-c1nc(-c3cn(C)c4ncccc34)cs1)cn2CCN1CCOCC1
true (1)
6) O=C(CCl)c1ccc([N+](=O)[O-])o1
true (1)
7) Clc1cccc(NCOOC2(OOCNc3cccc(Cl)c3)CCCCC2)c1
true (1)
8) CC12CCC(O)CC1=CCC1C2CCC2(C)C(O)CCC12 (configuration not stated)
false (0)
9) CC[C@H](C)[C@H](NC(=O)[C@H]1CCCCN1C)C(=O)N(C)[C@H](C[C@@H](OC(C)=O)c1nc(C(=O)N[C@@H](Cc2ccccc2)C[C@H](C)C(=O)OC)cs1)C(C)C
true (1)
10) COC1CC2c3ccccc3C1C(C)=[N+]2C (configuration not stated)
false (0)
11) CSc1nc(Cl)cc(N2CC2)n1
false (0)
12) CCCCCCCCOC(=O)CCN1CC1
false (0)
13) Cn1cc(C=O)c2nccnc21
false (0)
14) O=C(O)C(O)C(O)C1[O][Sb]([c]2ccc([N+](=O)[O-])cc2)[O]C1CO (configuration not stated)
false (0)
15) CCCc1cc(O)c2c3c(c(=O)oc2c1)CN(C)CC3
false (0)
16) C[C@]12CCc3sc(NCCc4ccccc4)nc3C1=CC[C@@H]1[C@@H]2CC[C@]2(C)C(=O)CC[C@@H]12
true (1)
17) CC[C@H](C)[C@H](NC(=O)C12C3C4C1C1C2C3C41NC)C(=O)N(C)[C@H](C[C@@H](OC(C)=O)c1nc(C(=O)N[C@@H](Cc2ccccc2)C[C@H](C)C(=O)OC)cs1)C(C)C (some centres not stated)
true (1)
18) Clc1ccc(COC(Cn2ccnc2)c2ccc(Cl)cc2Cl)cc1 (configuration not stated)
true (1)
19) Cn1cc(-c2csc(-c3cn(CCN4CCOCC4)c4ccc(F)cc34)n2)c2cccnc21
true (1)
20) c1ccc(CSC(c2ccccc2)c2ccccc2)cc1
false (0)
21) C[Se]C(=O)c1ccccc1OC(C)=O
false (0)
22) CCCOC(=O)N[C@H]1CCc2c(Br)c(OC)c(OC)c(OC)c2-c2ccc(SC)c(=O)cc21
false (0)
23) C[C@@H]1CCC2[C@@H](C)[C@H](OC(=O)CCC(=O)NCCNC(=O)Cc3cc(=O)oc4cc(N(C)C)ccc34)O[C@@H]3O[C@]4(C)CC[C@@H]1C23OO4 (some centres not stated)
false (0)
24) O=C([O][Hg][CH2]C1OCCOC1[CH2][Hg][O]C(=O)c1ccccc1)c1ccccc1 (configuration not stated)
true (1)
25) COC(=O)[C@@H](C)C[C@H](Cc1ccccc1)NC(=O)c1csc([C@@H](C[C@H](C(C)C)N(C)C(=O)[C@@H](NC(=O)[C@H]2CCCCN2C)C2CC2)OC(C)=O)n1
true (1)
26) COc1cc(NCCCN=C(N)N)c2ncccc2c1
false (0)
27) COC(=O)C1OC(Oc2ccc(N(CCCl)CCCl)cc2)C(OC(C)=O)C(OC(C)=O)C1OC(C)=O (configuration not stated)
false (0)
28) CN(C)C1C(=O)C(C(N)=O)=C(O)C2(O)C(=O)C3=C(O)c4c(O)cccc4C(C)(O)C3CC12.[Cl][Sb]([Cl])[Cl] (configuration not stated)
false (0)
29) CC1(C)C(C(=O)c2cn(CCCCF)c3ccccc23)C1(C)C
false (0)
30) O=[N+]([O-])c1ccc([Se]C2CCCCC2Cl)c([N+](=O)[O-])c1 (configuration not stated)
false (0)
31) CCCCN1CCCC[C@@H]1C(=O)N[C@H](C(=O)N(C)[C@H](C[C@@H](OC(C)=O)c1nc(C(=O)NC2CCC(C(=O)OC)CC2)cs1)C(C)C)C(C)C (some centres not stated)
true (1)
32) CN1C(=O)C(=Cc2cn(Cc3ccccc3)c3ccccc23)C(=O)N(C)C1=O
false (0)
33) C/C(=C\c1cc(C(F)(F)F)nn1CCNC(=O)OC(C)(C)C)[C@@H]1C[C@@H]2O[C@]2(C)CCC[C@H](C)[C@H](O)[C@@H](C)C(=O)C(C)(C)[C@@H](O)CC(=O)O1
false (0)
34) NC1CC2CCCCC2CC1(O)c1ccccc1 (configuration not stated)
false (0)
35) C[C@@H]1C[C@@]2(C)[C@@H](CC[C@@H]3[C@@H]2CC[C@]2(C)C(=O)CC[C@@H]32)CC1=O
false (0)
36) CC12CCC3C(CCC4Cc5[nH]c6ccccc6c5CC43C)C1CCC2O (configuration not stated)
true (1)
37) C#Cc1ccc2c(c1)C(c1ccccc1F)=NCC(=O)N2C
false (0)

----------
# System: 786-0 renal
# Assay Notes: NCI-60 one-dose screen, 48 h
# Assay Conditions: 10 µM unless noted
This is part of a sample that, as a whole, favours compounds with a hit. Of some 83,000 tested, about 20% had one in any assay. The source made the active and inactive calls. The calls were made as follows: active = growth percent below 10; inactive = the rest.
Classes used: label 1 for active, label 0 for inactive

1) CC(=O)OC[C@]1(C)C=C2C(=O)[C@](C)(O)C3(CC3)C(C)=C2[C@H]1O
label 1
2) C/C(=C\c1ccn(-c2ccc(N)cc2C(F)(F)F)n1)[C@@H]1C[C@@H]2O[C@]2(C)CCC[C@H](C)[C@H](O)[C@@H](C)C(=O)C(C)(C)[C@@H](O)CC(=O)O1
label 0
3) O=C([O][Hg][CH2]C1OCCOC1[CH2][Hg][O]C(=O)c1ccccc1)c1ccccc1 (configuration not stated)
label 0
4) CC[C@@H]1[C@@H](C)O[C@@](O)([C@@H](C)[C@H](O)[C@H](C)[C@H]2OC(=O)/C=C/C=C/[C@H](C)[C@@H]([C@@H](C)[C@@H](O)[C@H](C)[C@@]3(O)C[C@@H](O[C@H]4C[C@@H](O)[C@H](O)C(C)O4)[C@H](CC)[C@@H](C)O3)OC(=O)/C=C/C=C/[C@@H]2C)C[C@H]1O[C@@H]1C[C@@H](O)[C@H](O)C(C)O1 (some centres not stated)
label 1
5) COc1cc2ncnc(Nc3ccc(F)c(Cl)c3)c2cc1OCC(=O)N1CCN(C)CC1
label 0
6) CC1=C(O)[C@@](C)(CCCCC[C@H](C)CCCCc2ccc(O)cc2)OOC1=O
label 0
7) CNC(=O)Oc1ccc2c(c1)OCO2
label 0

----------
# Test system: LOX IMVI melanoma
# Assay Notes: NCI-60 one-dose screen, 48 h (100 = growth as untreated, 0 = no growth, -100 = all killed)
# Assay Conditions: 10 µM unless noted
Compounds without any hit were thinned out: in the full panel of roughly 83,000, 20% have a hit.
Measured growth accompanies every entry in the list below.
Experimental Endpoint: growth (%)

1) CC(=O)O[C@H](C[C@H](C(C)C)N(C)C(=O)[C@@H](NC(=O)[C@H]1CCCCN1C)C(C)(C)C)c1nc(C(=O)N[C@@H](Cc2ccccc2)C[C@H](C)C(=O)O)cs1
14.3
2) CCC[CH2][Sn]([CH2]CCC)([CH2]CCC)[O]c1ccc(Cl)cc1Cl
-81.4
3) O=C1C(Cl)=C(N2CCOCC2)C(=O)c2ccccc21
76.7
4) ClCCN(CCCl)c1ccc(/C=N\N=C\c2ccc(N(CCCl)CCCl)cc2)cc1
10.7
5) COc1ccc(C2=CC(c3ccc(OC)c(OC)c3)c3c(c4ccccc4oc3=O)O2)cc1OC (centres undefined)
36
6) Cc1c2cc(Cl)c3ccccc3c2c[n+]2ccccc12
84.6
7) COC(=O)[C@@]1(C)CC[C@]2(C)CC[C@]3(C)C4=CC(=O)c5c(cc(O)c(O)c5C)[C@]4(C)CC[C@@]3(C)[C@@H]2C1
50.7
8) CCC1(C)CC(CCNCc2ccccc2O)(c2ccc(C)cc2)CCO1 (centres undefined)
99.8
9) Nc1ncnc2n[nH]nc12
43.9
